Molecular target: native human Bradykinin B1 receptor (Homo sapiens, UniProt P46663)
Construct: which express native human Bradykinin B1 receptor after induction with human IL-1beta; Coriell Institute
Sequence (P46663 whole entry): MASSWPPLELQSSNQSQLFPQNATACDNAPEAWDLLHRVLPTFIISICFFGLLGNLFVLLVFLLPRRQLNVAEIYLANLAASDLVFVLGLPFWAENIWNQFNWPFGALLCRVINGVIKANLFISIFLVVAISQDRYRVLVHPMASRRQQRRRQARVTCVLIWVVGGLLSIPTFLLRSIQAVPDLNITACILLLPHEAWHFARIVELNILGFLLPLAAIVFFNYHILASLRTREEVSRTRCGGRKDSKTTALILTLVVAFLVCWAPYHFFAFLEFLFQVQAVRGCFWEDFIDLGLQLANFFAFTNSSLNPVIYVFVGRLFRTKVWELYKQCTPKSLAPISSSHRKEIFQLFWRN
Assay: Calcium flux assay (FLIPR) with IMR-90 human fibroblasts expressing Bradykinin B1 receptor after IL-1beta induction (hB1 IMR-90)
Details: IMR-90 human fibroblasts after IL-1beta induction, read-out: hB1 IMR90 IC50
Lab note: cut-off is 40 nM. Strictly less in IC50 is Satisfied. Exactly 40 nM or more is Not satisfied.

> print(dat)
                                    compound    group.label
 1  CCC(F)(F)c1ccc(-c2c(F)cc(NC(=O)C3(c4ccc(C(F)(F)F)cc4F)CC3)cc2C(=O)O)cn1 [Example 96]      Satisfied
 2  Cc1ccc(C2(C(=O)Nc3cc(F)c(-c4cnn(C5CCC5)c4)c(C(=O)O)c3)CC2)c(F)c1 [Example 25]      Satisfied
 3  CCC(F)(F)c1ccc(-c2ccc(NC(=O)C3(c4ccc(F)c(F)c4)CC3)cc2C(=O)O)cn1 [Example 20]  Not satisfied
 4  CCOc1ccc(-c2ccc(NC(=O)C3(c4cccc(Cl)c4)CC3)cc2C(=O)O)cn1 [Example 9]  Not satisfied
 5  CC(C)(C)n1cc(-c2ccc(NC(=O)C3(c4ccc(OC(F)(F)F)cc4F)CC3)cc2C(=O)O)cn1 [Example 73]  Not satisfied
 6  Cc1ccc(-c2ccc(NC(=O)C3(c4ccc(C(F)(F)F)cc4F)CC3)cc2C(=O)O)nc1 [Example 18]  Not satisfied
 7  CC(C)(C)c1cnn(-c2ccc(NC(=O)C3(c4ccc(C(F)(F)F)cc4F)CC3)cc2C(=O)O)c1 [Example 17]  Not satisfied
 8  O=C(O)c1cc(NC(=O)C2(c3ccc(OC(F)(F)F)cc3F)CC2)ccc1-c1ccc(C(F)(F)F)nc1 [Example 7]  Not satisfied
 9  CCOc1ccc(-c2ccc(NC(=O)C3(c4ccc(C(F)(F)F)cc4F)CC3)cc2C(=O)O)cn1 [Example 10]      Satisfied
10  O=C(O)c1cc(NC(=O)C2(c3ccc(C(F)(F)F)cc3F)CC2)cc(Cl)c1-c1cnn(C2CCC2)c1 [Example 100]      Satisfied
11  O=C(O)c1cc(NC(=O)C2(c3cccc(Cl)c3)CC2)ccc1-c1cnn(C2CCC2)c1 [Example 28]  Not satisfied
12  CC(C)(C)c1cnn(-c2ccc(NC(=O)C3(c4ccc(OC(F)(F)F)cc4F)CC3)cc2C(=O)O)c1 [Example 13]  Not satisfied
13  O=C(O)c1cc(NC(=O)C2(c3ccc(F)cc3F)CC2)cc(F)c1-c1cnn(C2CCC2)c1 [Example 40]      Satisfied
14  CC(C)Cn1cc(-c2ccc(NC(=O)C3(c4ccc(C(F)(F)F)cc4F)CC3)cc2C(=O)O)cn1 [Example 74]      Satisfied
15  O=C(O)c1cc(NC(=O)C2(c3ccc(Cl)cc3F)CC2)cc(F)c1-c1cnn(C2CCC2)c1 [Example 41]      Satisfied
16  O=C(O)c1cc(NC(=O)C2(c3ccc(C(F)(F)F)cc3F)CC2)ccc1-c1cnn(C2CCC2)c1 [Example 3]      Satisfied
17  O=C(O)c1cc(NC(=O)C2(c3ccc(OC(F)(F)F)cc3F)CC2)cc(F)c1-c1ccc(C(F)F)nc1 [Example 95]      Satisfied

The values you see were collected from patent US12023319B2.
